Numbers sourced from the supplement of paper PMC3334620.

# Target or system: Ylr278c (UniProt Q05854)
# Sequence (Q05854 whole entry): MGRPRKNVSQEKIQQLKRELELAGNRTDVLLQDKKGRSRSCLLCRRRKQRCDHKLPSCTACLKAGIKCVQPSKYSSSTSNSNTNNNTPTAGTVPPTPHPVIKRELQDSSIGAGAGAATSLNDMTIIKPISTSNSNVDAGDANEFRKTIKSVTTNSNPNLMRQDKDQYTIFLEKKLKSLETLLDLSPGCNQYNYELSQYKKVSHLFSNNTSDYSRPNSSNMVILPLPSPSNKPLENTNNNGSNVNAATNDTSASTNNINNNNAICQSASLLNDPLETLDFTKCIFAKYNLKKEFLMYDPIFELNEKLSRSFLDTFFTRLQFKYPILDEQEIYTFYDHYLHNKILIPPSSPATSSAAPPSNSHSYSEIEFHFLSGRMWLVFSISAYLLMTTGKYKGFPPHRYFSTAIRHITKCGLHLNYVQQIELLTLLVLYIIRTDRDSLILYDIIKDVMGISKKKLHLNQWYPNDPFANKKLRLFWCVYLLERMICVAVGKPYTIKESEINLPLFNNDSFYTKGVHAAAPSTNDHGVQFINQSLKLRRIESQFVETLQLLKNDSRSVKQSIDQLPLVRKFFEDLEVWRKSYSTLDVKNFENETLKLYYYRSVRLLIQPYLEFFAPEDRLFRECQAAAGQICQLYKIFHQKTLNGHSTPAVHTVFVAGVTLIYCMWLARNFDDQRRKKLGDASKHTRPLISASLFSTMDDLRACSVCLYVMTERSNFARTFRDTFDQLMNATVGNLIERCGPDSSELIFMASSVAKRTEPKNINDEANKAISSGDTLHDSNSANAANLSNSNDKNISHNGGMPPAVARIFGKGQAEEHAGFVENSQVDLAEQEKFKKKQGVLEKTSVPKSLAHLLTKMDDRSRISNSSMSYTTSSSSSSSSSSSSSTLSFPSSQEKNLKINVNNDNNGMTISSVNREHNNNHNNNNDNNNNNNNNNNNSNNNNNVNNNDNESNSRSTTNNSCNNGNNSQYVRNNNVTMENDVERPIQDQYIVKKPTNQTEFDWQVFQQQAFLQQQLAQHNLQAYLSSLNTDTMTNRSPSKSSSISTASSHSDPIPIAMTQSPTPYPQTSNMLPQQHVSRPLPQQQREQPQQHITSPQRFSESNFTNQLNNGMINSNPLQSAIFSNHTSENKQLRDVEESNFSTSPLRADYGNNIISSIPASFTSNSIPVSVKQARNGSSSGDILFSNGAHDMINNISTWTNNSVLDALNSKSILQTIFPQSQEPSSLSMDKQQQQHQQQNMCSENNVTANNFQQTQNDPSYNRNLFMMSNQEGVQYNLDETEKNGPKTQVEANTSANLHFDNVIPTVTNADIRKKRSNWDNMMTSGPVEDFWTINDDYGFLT
# Procedure summary: PBM E-score (8-mer binding enrichment) (E-score (-0.5 to 0.5)); higher = stronger / more preferred TF binding
# Condition info: protein concentration: 200 nM; construct: GST-DNA-binding domain
Over roughly 33,000 sequences, “E-score (-0.5 to 0.5)” has its median near -0.054; the highest 2% begin near 0.39. Many of the other results were omitted from the sample, so the highest values are more common in it than they were.
Property name: PBM E-score

Sequence string	Target or system	PBM E-score
CCGGCCGG	Ylr278c (UniProt Q05854)	0.461

// next entry
Input: Missing value: PBM E-score, Ylr278c (UniProt Q05854), entry ACGGCCGG . Fill in?
Output: 0.33
